Measured EC50, listed per entry.
Tested on: recombinant NL4-3 virus (Renilla luciferase in nef, Gag P373S; NLRluc) in MT-2 cells
Assay summary: whole plant or invertebrate
Type: cell-based, HIV
Run parameters: Renilla, NL43, luciferase activity in cells infected for 4-5 days with NLRluc recombinants, serial dilutions of inhibitor; class symbols (key in Table 1); read-out: EC50

C=C(C)[C@@H]1CC[C@]2(NC(=O)N3CCNCC(O)C3)CC[C@]3(C)[C@H](CC[C@@H]4[C@@]5(C)CC=C(c6ccc(C(=O)O)cc6)C(C)(C)[C@@H]5CC[C@]43C)[C@@H]12 (mixture of isomers) [Example 64]	< 100 nM

We next turn to a different compound, shown below.
Entry C=C(C)[C@@H]1CC[C@]2(NC(=O)NCCCN(C)C)CC[C@]3(C)[C@H](CC[C@@H]4[C@@]5(C)CC=C(c6ccc(C(=O)O)cc6)C(C)(C)[C@@H]5CC[C@]43C)[C@@H]12 [Example 10] ; EC50 = < 100 nM

Cited source: patent US20140343000A1
